Value source: ChEMBL document CHEMBL4152188

Tested on: Escherichia coli
Assay: Antibacterial activity against Escherichia coli isolate 210737 after 18 hrs by CLSI broth microdilution method
Format: functional
Settings: isolate 210737, 18 h
reported_metric: MIC

// worked examples, MIC included
Input line: Supply measured MIC of CC(C)C(O/N=C(\C(=O)N[C@@H]1C(=O)N(S(=O)(=O)O)[C@@H]1CO)c1csc(N)n1)c1cc(=O)c(O)cn1O (stereo partly drawn) in your reply.
Output line: > 64 µg/mL

Input line: Check the records and state MIC for CC(C)C(O/N=C(\C(=O)N[C@@H]1C(=O)N(S(=O)(=O)O)[C@@H]1COC(=O)C1CN(C(=O)c2ccc(O)c(O)c2Cl)C1)c1csc(N)n1)c1cc(=O)c(O)cn1O (stereo partly drawn)
Output line: > 64 µg/mL

Others:
Input line: State, in one line, measured MIC of C=CC1[C@H](NC(=O)/C(=N\OC(c2cc(=O)c(O)cn2O)C(C)C)c2csc(N)n2)C(=O)N1S(=O)(=O)O (stereo partly drawn)
Output line: > 64 µg/mL

---

Entries and their MIC values follow.
System: Escherichia coli
Assay: Antibacterial activity against extended-spectrum beta-lactamase producing Escherichia coli isolate 209285 after 18 hrs by CLSI broth microdilution method
Format: functional
Conditions: isolate 209285, 18 h

Check out these entries, answers already filled in.
Input line: Retrieve MIC measured for CC(C)C(O/N=C(\C(=O)NC1C(=O)N(S(=O)(=O)O)C1(CF)CF)c1csc(N)n1)c1cc(=O)c(O)cn1O (stereo not drawn) and print it.
Output line: > 64 µg/mL

Input line: Input C=CC1[C@H](NC(=O)/C(=N\OC(c2cc(=O)c(O)cn2O)C(C)C)c2csc(N)n2)C(=O)N1S(=O)(=O)O (stereo partly drawn) , output reported MIC.
Output line: > 64 µg/mL

With those in mind, consider the next molecule.
Input line: Specify MIC for C#CC1[C@H](NC(=O)/C(=N\OC(c2cc(=O)c(O)cn2O)C(C)C)c2csc(N)n2)C(=O)N1S(=O)(=O)O (stereo partly drawn) and stop.
Output line: > 64 µg/mL

---

System: Escherichia coli
Test: Antibacterial activity against extended-spectrum beta-lactamase producing Escherichia coli isolate 208687 after 18 hrs by CLSI broth microdilution method
Format: functional
Conditions: isolate 208687, 18 h
reported_metric: MIC

Completed entries (count: 2):
Input line: Query MIC for C[C@@H](O)[C@H]1C(=O)N2C(C(=O)O)=C(S[C@@H]3CN[C@H](C(=O)N(C)C)C3)[C@H](C)[C@H]12
Output line: 0.125 µg/mL

Input line: Look up and report measured MIC for this entry: CC(C)C(O/N=C(\C(=O)N[C@@H]1C(=O)N(S(=O)(=O)O)[C@@H]1COC(N)=O)c1csc(N)n1)c1cc(=O)c(O)cn1O (some centres undefined)
Output line: 0.5 µg/mL

Continuing:
Input line: For the compound C#CC1[C@H](NC(=O)/C(=N\OC(c2cc(=O)c(O)cn2O)C(C)C)c2csc(N)n2)C(=O)N1S(=O)(=O)O (some centres undefined) , give its reported MIC.
Output line: > 64 µg/mL

Input line: Answer with the recorded MIC of CC(C)C(O/N=C(\C(=O)N[C@@H]1C(=O)N(S(=O)(=O)O)[C@@H]1CCl)c1csc(N)n1)c1cc(=O)c(O)cn1O (some centres undefined) only.
Output line: 0.5 µg/mL
